# Tested on: M14 melanoma
# TEST_METHOD_NOTES: NCI tumour cell line growth inhibition, 48 h
ENDPOINT: TGI

Worked examples, 4 compounds total:
COMPOUND	MEASUREMENT_TARGET	VAL
CCOC(=O)C1=COC(C)(C)CC1=O	M14 melanoma	> 100 µM
Cc1ccc(C)c(NC(=O)C(=O)CC(=O)c2cccc3ccccc23)c1	M14 melanoma	> 100 µM
O=C1NC(=O)/C(=C/c2ccc(S(=O)(=O)N/N=C/c3ccccc3)cc2)N1	M14 melanoma	> 100 µM
CC(N)CN.CC(N)CN.[Cl-].[O]=[Os+2]=[O] (configuration not stated)	M14 melanoma	> 100 µM

Provide TGI values for the following items, in order.
1. Nc1nccc2c1ncn2C1C=C(CO)C(O)C1O (configuration not stated)
2. Cc1ccc(-n2nnc3c(sc4ccccc43)c2=O)cc1
3. CN(CCNC(=O)c1cn(C)c2c1ccc1cc(Cl)ccc12)CCNC(=O)c1cn(C)c2c1ccc1cc(Cl)ccc12
4. NC(Cc1ccc(O)cc1)C(=O)N/N=C/c1ccc(N(CCCl)CCCl)cc1 (configuration not stated)
5. O=CNNC(=O)CSc1nc2ccc(I)cc2c(=O)n1Cc1ccccc1
6. CC(=O)OCC1=C2C(OC(=O)C(C)C)CC3(COC(C)=O)OC3/C=C\C3(C)OC3C2OC1=O (configuration not stated)

[out]
1. > 1000 µM
2. > 100 µM
3. 3 µM
4. 81.2 µM
5. > 100 µM
6. > 100 µM
